Where these numbers come from: PubChem BioAssay (NCI)

Tested on: A498 renal
Test: NCI-60 one-dose screen, 48 h
Details: 10 µM unless noted
About 83,000 compounds went through this panel and 20% of them were active in at least one assay; those are over-represented in the sample as a whole. Calls of active or inactive are those of the source. The calls were made as follows: active = growth percent below 10; inactive = the rest.
Lab note: assign the record to one of class 1 (active), class 0 (inactive)

[
  {
    "compound": "COC(=O)[C@]12CC[C@@H](C)[C@H](C)[C@@H]1C1=CC[C@@H]3[C@@]4(C)C[C@@H](OC(C)=O)[C@H](O)[C@@](C)(COC(C)=O)[C@@H]4[C@H](O)C[C@@]3(C)[C@]1(C)CC2",
    "tested-on": "A498 renal",
    "classification": "class 1"
  }
]

[Q] Hi team, can someone confirm the assay call for COC(=O)[C@]12CC[C@@H](C)[C@H](C)[C@@H]1C1=CC[C@@H]3[C@@]4(C)C(c5ncon5)=C[C@@](C)(CO)C4=CC[C@@]3(C)[C@]1(C)CC2 ?
[A] class 1

[Q] Hi team, can someone confirm the assay call for O=C1C(Cl)=C(Nc2ccc(S(=O)(=O)c3ccc(NC4=C(Cl)C(=O)c5ccccc5C4=O)cc3)cc2)C(=O)c2ccccc21 ?
[A] class 0

[Q] Hi team, can someone confirm the assay call for Cc1ccc(S(=O)(=O)Nc2ccc(-c3cc(-c4cccc(F)c4)c(C#N)c(=O)[nH]3)cc2)cc1 ?
[A] class 0

[Q] Hi team, can someone confirm the assay call for COc1ccc(-c2cc(-c3cccs3)n(N=O)c(=O)c2C#N)cc1 ?
[A] class 0

[Q] Hi team, can someone confirm the assay call for O=C1CNCCN1 ?
[A] class 0

[Q] Hi team, can someone confirm the assay call for Cc1ccc(-c2ccc(Nc3ccccc3)nn2)cc1S(N)(=O)=O ?
[A] class 0

[Q] Hi team, can someone confirm the assay call for CC(=O)OC(C)COc1ccc(-c2ccccc2)cc1 (centres undefined) ?
[A] class 0

[Q] Hi team, can someone confirm the assay call for Cn1cc(-c2nc(-c3c[nH]c4ncccc34)cs2)c2ccccc21 ?
[A] class 0

* * *

Test system: NCI-H460 lung
Assay: NCI-60 one-dose screen, 48 h
Settings: 10 µM unless noted
About 83,000 compounds went through this panel and 20% of them were active in at least one assay; those are over-represented in the sample as a whole. The source made the active and inactive calls. The calls were made as follows: active = growth percent below 10; inactive = the rest.
Lab note: assign the record to one of active, inactive

Answered examples (4):
[
  {
    "compound": "OCCNc1nc(Nc2ccc(Cl)c(Cl)c2)nc2ccccc12",
    "classification": "inactive"
  },
  {
    "compound": "CNC(=O)c1cc(Oc2ccc3nc(NC(=O)Nc4ccc(Cl)cc4)sc3c2)ccn1",
    "classification": "inactive"
  },
  {
    "compound": "COC(c1ccccc1)(c1ccccc1)c1ccccc1",
    "classification": "inactive"
  },
  {
    "compound": "Cc1cc(N(CCCNc2ccnc3cc(Cl)ccc23)Cc2ccco2)nc(Cl)n1",
    "classification": "inactive"
  }
]

[Q] Hi team, can someone confirm the assay call for COc1cccc(-c2nn(-c3ccccc3)cc2-c2ccnc(NCCNS(=O)(=O)c3ccc(Cl)cc3)c2)c1 ?
[A] inactive

[Q] Hi team, can someone confirm the assay call for CCC(CC)C(=O)OC(C)COc1ccc(C(C)(C)C)cc1 (stereo not given) ?
[A] inactive

[Q] Hi team, can someone confirm the assay call for Cc1ccc(Sc2sc(-c3ccccc3)nc2[P+](c2ccccc2)(c2ccccc2)c2ccccc2)cc1 ?
[A] active

[Q] Hi team, can someone confirm the assay call for C=C(C)[C@@H]1CC[C@]2(C)CC[C@]3(C)[C@H](CC[C@@H]4[C@@]5(C)CCCNC(C)(C)[C@@H]5CC[C@]43C)[C@@H]12 ?
[A] inactive

[Q] Hi team, can someone confirm the assay call for O=C(/C=C\c1ccc2c(c1)OCO2)/C=C/c1ccc2c(c1)OCO2 ?
[A] inactive

[Q] Hi team, can someone confirm the assay call for O=[N+]([O-])c1cc(S(=O)(=O)c2ccc(F)c([N+](=O)[O-])c2)ccc1F ?
[A] inactive

[Q] Hi team, can someone confirm the assay call for Cn1cc(-c2csc(-c3cn(CCCN4CCCCC4)c4ccccc34)n2)c2cccnc21 ?
[A] active

[Q] Hi team, can someone confirm the assay call for COc1cc2c(cc1-c1c(C)noc1C)ncc1nc(C3CCC(F)(F)CC3)n([C@@H](C)COC(F)F)c12 ?
[A] inactive

[Q] Hi team, can someone confirm the assay call for CCCCCC1CCCCN1C(=O)OCC (stereo not given) ?
[A] inactive

[Q] Hi team, can someone confirm the assay call for CCC(=O)c1c(C)[nH]c(C)c1C ?
[A] inactive

[Q] Hi team, can someone confirm the assay call for CC(C)(C)n1cc(-c2ccnc(NCCCNS(=O)(=O)c3ccc(Cl)cc3)c2)c(-c2cccc(F)c2)n1 ?
[A] inactive

[Q] Hi team, can someone confirm the assay call for Cc1cccc2c1NC(=O)[C@@]21[C@H](C(=O)c2ccccc2)[C@]2(C(=O)Nc3ccccc32)[C@H]2CCCN21 ?
[A] inactive

[Q] Hi team, can someone confirm the assay call for C=CC(=O)N[C@H](Cc1ccc(-c2cc(Cl)cc(Cl)c2)cc1)[C@H](O)[C@@H](O)C(=O)O ?
[A] inactive

* * *

In this section, each of the compounds is paired with its reported growth.
System: SF-539 CNS
Test: NCI-60 one-dose screen, 48 h (100 = growth as untreated, 0 = no growth, -100 = all killed)
Conditions: 10 µM unless noted
About 83,000 compounds went through this panel and 20% of them were active in at least one assay; those are over-represented in the sample as a whole.
Report the figure in % without appending any unit label.

[Q] Could you tell me which growth is on file for COc1ccc(-c2nc3ncccn3c2-c2nc3ccc(Br)cc3[nH]2)cc1 ?
[A] 82.8

* * *

Test system: MDA-MB-231 breast
Experiment: NCI-60 one-dose screen, 48 h (100 = growth as untreated, 0 = no growth, -100 = all killed)
Details: 10 µM unless noted
The panel holds about 83,000 compounds, 20% with a hit somewhere; the sample as a whole holds those more often.
measurement-kind: growth (%)
Report the figure in % without appending any unit label.

[
  {
    "compound": "C(=C\\c1c[nH]c2ccccc12)/c1ccc2ccccc2n1",
    "tested-on": "MDA-MB-231 breast",
    "growth, %": 56.4
  },
  {
    "compound": "CCCCC(=O)OC1CCCCC1C (stereo not given)",
    "tested-on": "MDA-MB-231 breast",
    "growth, %": 106
  },
  {
    "compound": "C=C(C)[C@@H]1CC[C@]2(C)[C@H](CC[C@@H]3[C@H]4[C@H]5OC[C@@]4(CCC5(C)C)CC[C@]32C)[C@@]1(C)CCCN",
    "tested-on": "MDA-MB-231 breast",
    "growth, %": 16.7
  }
]

[Q] Could you tell me which growth is on file for O=[N+]([O-])c1cc(S(=O)(=O)c2ccc(F)c([N+](=O)[O-])c2)ccc1F ?
[A] 103

[Q] Could you tell me which growth is on file for COc1ccc(O)c(-c2cc(-c3ccc(Cl)cc3)c(C#N)c(=O)[nH]2)c1 ?
[A] 61.2

* * *

In this section, each of the molecules is paired with its reported growth.
System: SN12C renal
Assay: NCI-60 one-dose screen, 48 h (100 = growth as untreated, 0 = no growth, -100 = all killed)
Settings: 10 µM unless noted
About 83,000 compounds went through this panel and 20% of them were active in at least one assay; those are over-represented in the sample as a whole.
Report the figure in % without appending any unit label.

Observe how each entry below is paired with its result.
[
  {
    "smiles-data": "COc1ccc(-c2nc3ncccn3c2-c2nc3ccc(Br)cc3[nH]2)cc1",
    "measurement-unit": "%",
    "meas-value": 89
  },
  {
    "smiles-data": "CC(=O)O[C@@H]1CCN2C(=O)N(C)c3ccccc3[C@@H]2C1",
    "measurement-unit": "%",
    "meas-value": 98.9
  },
  {
    "smiles-data": "COC(=O)[C@]12CC[C@@H](C)[C@H](C)[C@@H]1C1=CC[C@@H]3[C@@]4(C)C[C@@H](OC(C)=O)[C@H](O)[C@@](C)(COC(C)=O)[C@@H]4[C@H](O)C[C@@]3(C)[C@]1(C)CC2",
    "measurement-unit": "%",
    "meas-value": -69.9
  },
  {
    "smiles-data": "C=C(C)[C@@H]1CC[C@]2(CN)CC[C@]3(C)[C@H](CC[C@@H]4[C@@]5(C)CCC(=O)NC(C)(C)[C@@H]5CC[C@]43C)[C@@H]12",
    "measurement-unit": "%",
    "meas-value": 65.6
  }
]

Okay, next one:
[Q] Could you tell me which growth is on file for N=c1c(S(=O)(=O)c2ccccc2)cc2c(=O)n3ccccc3nc2n1C1CCCC1 ?
[A] 87.2
